Every entry's value here was drawn from patent US20140088052A1.

// values below are reported fold induction at 10 µM
system: Nrf2; experiment: Expression of Nrf2-regulated genes GCLM and NQO1 by qRT-PCR in Beas-2B cells (screen); assay type: cell-based, human; conditions: Homo sapiens, BEAS-2B, 16 h, DMSO = 1 (Table 3), read-out: Relative Fold Change GCLM
# respond with the number and nothing more

cpd-smiles	numeric-readout
COc1ccc(OC)c(C(=O)/C=C/c2ccc(C(F)(F)F)cc2)c1	4.1

Name the recorded fold induction at 10 µM of the item `COc1ccc(C(=O)/C=C/c2ccccc2C(F)(F)F)c(OC)c1` in your answer.
5.4

Name the recorded fold induction at 10 µM of the item `O=C(/C=C/c1ccccc1C(F)(F)F)c1ccccc1` in your answer.
5

Name the recorded fold induction at 10 µM of the item `COc1cccc(OC)c1C(=O)/C=C/c1ccccc1[N+](=O)[O-]` in your answer.
4.1

Name the recorded fold induction at 10 µM of the item `COc1cc(OC)cc(C(=O)/C=C/c2ccccc2C(F)(F)F)c1` in your answer.
4
